The entries below come with measured koff values attached.
- TARGET OR SYSTEM: T1, human PD-L1 antigen (Beijing Sino Biological Inc, Catalog No. #10084-H08H-100) (human, UniProt Q9NZQ7 19-239)
- T1 construct: Bought antigen; also called the antigen
- T1 sequence (Q9NZQ7 19-239 limits assumed): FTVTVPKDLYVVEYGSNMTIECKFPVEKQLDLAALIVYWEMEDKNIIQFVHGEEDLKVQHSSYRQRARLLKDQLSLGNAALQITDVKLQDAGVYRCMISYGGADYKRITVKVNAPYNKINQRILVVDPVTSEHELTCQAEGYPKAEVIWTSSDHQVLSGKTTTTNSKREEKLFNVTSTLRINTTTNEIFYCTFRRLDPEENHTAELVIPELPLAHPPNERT
- PROTOCOL: BLI (ForteBIO Octet), antibody captured on sensor, human PD-L1 in solution

# BINDER, koff, s⁻¹
rows = [
    ("Antibody II-HX-14 (antibody, human IgG4 S228P, kappa, V domains shown) VH: VQLVQSGAEVKKPGASVKVSCKASGYFFSSFVMHWVRQAPGQGLEWMGYINYYNDATKYNEKFKGRVTITSDKSASTAYMELSSLRSEDTAVYYCARSAALSEYWGQGTLVTVSS VL: TQSPSFLSASVGDRVTITCSASSTITYMHWFQQKPGKSPKLWIYYTSNLASGVPARFSGSGSGTSYSLTISSLQPEDFATYYCQNRTSFHYTFGQGTKLEIKR", "9.55e-06"),
    ("Antibody II-HX-18 (antibody, human IgG4 S228P, kappa, V domains shown) VH: VQLVQSGAEVKKPGASVKVSCKASGYYTSSPVMHWVRQAPGQGLEWMGYINPYNDGTKYNEKFKGRVTITSDKSASTAYMELSSLRSEDTAVYYCAKSGGISDYWGQGTLVTVSS VL: TQSPSFLSASVGDRVTITCSASSSASYMHWFQQKPGKSPKLWIYSYSNLASGVPARFSGSGSGTSYSLTISSLQPEDFATYYCQYRTSYPYTFGQGTKLEIKR", "1.92e-06"),
    ("Antibody II-HX-15 (antibody, human IgG4 S228P, kappa, V domains shown, also called antibody II sample; candidate antibody II sample) VH: VQLVQSGAEVKKPGASVKVSCKASGYTFTSYVMHWVRQAPGQGLEWMGYINPYNDGTKYNEKFKGRVTITSDKSASTAYMELSSLRSEDTAVYYCAWSGAIFEYWGQGTLVTVSS VL: TQSPSFLSASVGDRVTITCSASSSVSYMHWFQQKPGKSPKLWIYSTSNLASGVPARFSGSGSGTSYSLTISSLQPEDFATYYCQQRSSYPYTFGQGTKLEIKR", "5.6e-07"),
    ("Antibody II-HX-10 (antibody, human IgG4 S228P, kappa, V domains shown) VH: VQLVQSGAEVKKPGASVKVSCKASGYSTSSFVMHWVRQAPGQGLEWMGYINYYNDATKYNEKFKGRVTITSDKSASTAYMELSSLRSEDTAVYYCAWSGAIFEYWGQGTLVTVSS VL: TQSPSFLSASVGDRVTITCSASSSVSYMHWFQQKPGKSPKLWIYSYSNLASGVPARFSGSGSGTSYSLTISSLQPEDFATYYCQNRTSFHYTFGQGTKLEIKR", "9.2e-06"),
    ("Antibody II-HX-16 (antibody, human IgG4 S228P, kappa, V domains shown) VH: VQLVQSGAEVKKPGASVKVSCKASGYFYTSYVMHWVRQAPGQGLEWMGYINPFQDITKYNEKFKGRVTITSDKSASTAYMELSSLRSEDTAVYYCAWSAALSEYWGQGTLVTVSS VL: TQSPSFLSASVGDRVTITCSASSSVSYMHWFQQKPGKSPKLWIYSTSNLASGVPARFSGSGSGTSYSLTISSLQPEDFATYYCQNRYSYPYTFGQGTKLEIKR", "9.19e-06"),
    ("Antibody II-HX-17 (antibody, human IgG4 S228P, kappa, V domains shown) VH: VQLVQSGAEVKKPGASVKVSCKASGYFFSSFVMHWVRQAPGQGLEWMGYINHFQDATKYNEKFKGRVTITSDKSASTAYMELSSLRSEDTAVYYCARSVGITDYWGQGTLVTVSS VL: TQSPSFLSASVGDRVTITCSASSTVYYMHWFQQKPGKSPKLWIYSYSNLASGVPARFSGSGSGTSYSLTISSLQPEDFATYYCQQRSSYHYTFGQGTKLEIKR", "4.92e-06"),
]
